# STUDY_SYSTEM: mGlu5bR (metabotropic glutamate receptor type 5) (Rattus norvegicus)
# Construct: mGlu5bR^NL: NanoLuc fused at the N terminus of rat mGlu5bR, expressed in HEK293T cells
# Sequence (P31424 21-1203): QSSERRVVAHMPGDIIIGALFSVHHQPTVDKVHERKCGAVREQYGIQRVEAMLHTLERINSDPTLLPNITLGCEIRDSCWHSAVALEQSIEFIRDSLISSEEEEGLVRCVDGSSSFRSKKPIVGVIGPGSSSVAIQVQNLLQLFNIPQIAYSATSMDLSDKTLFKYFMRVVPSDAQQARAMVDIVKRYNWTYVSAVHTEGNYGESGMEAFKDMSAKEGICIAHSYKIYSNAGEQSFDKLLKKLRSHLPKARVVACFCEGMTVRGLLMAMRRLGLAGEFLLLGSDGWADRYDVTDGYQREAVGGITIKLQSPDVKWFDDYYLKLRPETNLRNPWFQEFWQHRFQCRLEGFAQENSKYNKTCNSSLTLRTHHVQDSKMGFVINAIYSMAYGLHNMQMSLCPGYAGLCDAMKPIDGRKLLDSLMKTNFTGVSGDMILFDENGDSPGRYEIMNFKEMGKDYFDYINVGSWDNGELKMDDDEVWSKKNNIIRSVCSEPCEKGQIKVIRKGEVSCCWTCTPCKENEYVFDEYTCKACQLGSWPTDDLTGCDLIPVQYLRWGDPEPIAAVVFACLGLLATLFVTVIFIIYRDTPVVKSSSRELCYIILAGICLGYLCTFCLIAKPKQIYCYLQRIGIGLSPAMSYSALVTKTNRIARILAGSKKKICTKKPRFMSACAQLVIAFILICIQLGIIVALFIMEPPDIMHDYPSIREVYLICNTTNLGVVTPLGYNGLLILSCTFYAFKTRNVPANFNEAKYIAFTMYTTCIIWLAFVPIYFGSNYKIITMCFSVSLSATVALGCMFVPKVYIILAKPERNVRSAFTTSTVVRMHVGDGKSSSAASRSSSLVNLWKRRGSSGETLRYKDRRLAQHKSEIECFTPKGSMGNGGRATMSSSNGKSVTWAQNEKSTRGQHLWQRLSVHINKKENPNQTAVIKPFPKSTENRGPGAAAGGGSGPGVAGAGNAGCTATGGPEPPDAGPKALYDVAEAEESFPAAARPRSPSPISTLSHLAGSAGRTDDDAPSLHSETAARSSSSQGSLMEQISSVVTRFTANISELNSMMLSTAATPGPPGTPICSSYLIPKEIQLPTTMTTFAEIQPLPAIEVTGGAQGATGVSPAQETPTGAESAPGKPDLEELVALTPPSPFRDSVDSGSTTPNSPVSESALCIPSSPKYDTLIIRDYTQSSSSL
# ASSAY_NOTES: NanoBRET saturation binding in living HEK293T cells, displaced by […] MTEP; also NFAT-luciferase NAM assay
Each entry below carries its recorded Kd.
MEASURE: Kd (nM)

{"columns": ["SMILES_CODE", "MEASURE", "RECORDED_RESULT"],
 "data": [
  ["COc1ccc(C2=[N+]3C(=C(CCCCc4cn(CCOCCOCCOCCOCCOCCNC(=O)COc5cncc(C#Cc6csc(C)n6)c5)nn4)c4ccc(-c5ccc(OC)cc5)n4[B-]3(F)F)C=C2)cc1", "Kd", 840],
  ["COc1ccc(C2=[N+]3C(=C(CCCCc4cn(CCCCCCCCN(C)CCCCCNC(=O)COc5cncc(C#Cc6csc(C)n6)c5)nn4)c4ccc(-c5ccc(OC)cc5)n4[B-]3(F)F)C=C2)cc1", "Kd", 1400]
]}

Values were extracted from paper PMC7180738.
